Molecular target: hCA IX (Homo sapiens, UniProt Q16790)
Construct: gene CA9; recombinant, made in-house
Test: stopped-flow CO2 hydrase assay
Type: biochemical
pKi: −log10 of the molar value.
measurement_type: pKi

Task item: # value lookup — system hCA IX (Homo sapiens, UniProt Q16790), readout pKi, item Nc1ccccc1S(=O)(=O)N1CCN(C(=O)c2cc(S(N)(=O)=O)c(Cl)cc2Cl)CC1
Reply: 7.94

Task item: # repeat for NS(=O)(=O)c1cc(C(=O)N2CCN(S(=O)(=O)c3ccc(Cl)cc3)CC2)c(Cl)cc1Cl
Reply: 7.45

Task item: # repeat for NS(=O)(=O)c1cc(C(=O)N2CCN(S(=O)(=O)c3ccc(Cl)c(Cl)c3)CC2)c(Cl)cc1Cl
Reply: 7.41

a = NS(=O)(=O)c1cc(C(=O)N2CCN(S(=O)(=O)c3ccccc3)CC2)c(Cl)cc1Cl
b = Cc1ccc(S(=O)(=O)N2CCN(C(=O)c3cc(S(N)(=O)=O)c(Cl)cc3Cl)CC2)cc1
Task item: Between the two listed entries a and b , which has its pKi at the higher number? Identify your selection by its label.
Reply: a
(a: 7.40, b: 6.47)

###

Molecular target: hCA I (Homo sapiens, UniProt P00915)
Construct: gene CA1; purchased from Merck; cytosolic isoform; construct not described
Sequence (P00915 2-261): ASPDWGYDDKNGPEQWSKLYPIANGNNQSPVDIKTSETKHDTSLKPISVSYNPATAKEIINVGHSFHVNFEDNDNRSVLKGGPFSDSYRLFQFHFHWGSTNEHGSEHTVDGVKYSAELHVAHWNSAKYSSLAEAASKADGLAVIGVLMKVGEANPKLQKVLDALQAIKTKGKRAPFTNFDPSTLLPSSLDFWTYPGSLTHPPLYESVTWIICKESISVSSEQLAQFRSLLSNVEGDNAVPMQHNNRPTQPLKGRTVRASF
Experiment: stopped-flow CO2 hydrase assay
Format: biochemical
pKi: −log10 of the molar value.
measurement_type: pKi

Some molecules with recorded pKi:
Task item: Would you mind telling me what pKi value was observed for COc1ccc(S(=O)(=O)N2CCN(C(=O)c3cc(S(N)(=O)=O)c(Cl)cc3Cl)CC2)cc1 [compound 6] ?
Reply: 8.04

Task item: # repeat for NS(=O)(=O)c1cc(C(=O)N2CCN(S(=O)(=O)c3ccccc3[N+](=O)[O-])CC2)c(Cl)cc1Cl [compound 13]
Reply: 8.11

Task item: # repeat for NS(=O)(=O)c1cc(C(=O)N2CCN(S(=O)(=O)c3ccc(Cl)c(Cl)c3)CC2)c(Cl)cc1Cl [compound 15]
Reply: 8.15

Task item: # repeat for Nc1cccc(S(=O)(=O)N2CCN(C(=O)c3cc(S(N)(=O)=O)c(Cl)cc3Cl)CC2)c1 [compound 12]
Reply: 8.24

Task item: # repeat for CC(=O)Nc1ccc(S(=O)(=O)N2CCN(C(=O)c3cc(S(N)(=O)=O)c(Cl)cc3Cl)CC2)cc1 [compound 10]
Reply: 8.10

Task item: # repeat for Nc1ccccc1S(=O)(=O)N1CCN(C(=O)c2cc(S(N)(=O)=O)c(Cl)cc2Cl)CC1 [compound 14]
Reply: 8.27

a = NS(=O)(=O)c1cc(C(=O)N2CCN(S(=O)(=O)c3ccc(Cl)cc3)CC2)c(Cl)cc1Cl [compound 7]
b = Cc1ccc(S(=O)(=O)N2CCN(C(=O)c3cc(S(N)(=O)=O)c(Cl)cc3Cl)CC2)cc1 [compound 5]
Task item: Between the two listed entries a and b , which has its pKi at the higher number? Identify your selection by its label.
Reply: a
(a: 8.09, b: 7.19)

###

Target: hCA XII (Homo sapiens)
Construct: gene CA12; recombinant, made in-house
Sequence (O43570 25-354 limits assumed): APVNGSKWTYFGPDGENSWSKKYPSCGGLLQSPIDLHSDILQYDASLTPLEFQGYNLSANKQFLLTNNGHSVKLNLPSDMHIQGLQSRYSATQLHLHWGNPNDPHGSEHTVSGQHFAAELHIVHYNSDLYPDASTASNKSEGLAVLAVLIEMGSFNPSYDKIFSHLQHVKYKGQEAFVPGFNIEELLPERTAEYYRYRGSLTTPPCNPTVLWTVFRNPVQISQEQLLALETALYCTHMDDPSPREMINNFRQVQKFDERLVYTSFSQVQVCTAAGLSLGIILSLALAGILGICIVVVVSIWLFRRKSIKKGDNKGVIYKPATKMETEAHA
Assay: stopped-flow CO2 hydrase assay
Type: biochemical
measurement_type: Ki (nM)

Task item: Would you mind telling me what Ki value was observed for NS(=O)(=O)c1cc(C(=O)N2CCN(S(=O)(=O)c3ccccc3)CC2)c(Cl)cc1Cl [compound 4] ?
Reply: 7.1

Task item: # repeat for CC(=O)Nc1ccc(S(=O)(=O)N2CCN(C(=O)c3cc(S(N)(=O)=O)c(Cl)cc3Cl)CC2)cc1 [compound 10]
Reply: 7.2

Task item: # repeat for NS(=O)(=O)c1cc(C(=O)N2CCN(S(=O)(=O)c3ccc([N+](=O)[O-])cc3)CC2)c(Cl)cc1Cl [compound 8]
Reply: 7.9

Task item: # repeat for NS(=O)(=O)c1cc(C(=O)N2CCN(S(=O)(=O)c3cccc([N+](=O)[O-])c3)CC2)c(Cl)cc1Cl [compound 11]
Reply: 7.8

###

Molecular target: hCA II (Homo sapiens)
Construct: gene CA2; purchased from Merck; cytosolic isoform; construct not described
Experiment: stopped-flow CO2 hydrase assay
Assay type: biochemical
measurement_type: Ki (nM)

Some compounds with recorded Ki:
Task item: Would you mind telling me what Ki value was observed for NS(=O)(=O)c1cc(C(=O)N2CCN(S(=O)(=O)c3ccc(Cl)cc3)CC2)c(Cl)cc1Cl ?
Reply: 3.4

Task item: # repeat for CC(C)(C)OC(=O)N1CCN(C(=O)c2cc(S(N)(=O)=O)c(Cl)cc2Cl)CC1
Reply: 3.9

Task item: # repeat for NS(=O)(=O)c1cc(C(=O)N2CCN(S(=O)(=O)c3ccccc3)CC2)c(Cl)cc1Cl
Reply: 7.4

Task item: # repeat for NS(=O)(=O)c1cc(C(=O)N2CCN(S(=O)(=O)c3cccc([N+](=O)[O-])c3)CC2)c(Cl)cc1Cl
Reply: 6.6

a = NS(=O)(=O)c1cc(C(=O)N2CCN(S(=O)(=O)c3ccc([N+](=O)[O-])cc3)CC2)c(Cl)cc1Cl
b = NS(=O)(=O)c1cc(C(=O)N2CCN(S(=O)(=O)c3ccc(Cl)c(Cl)c3)CC2)c(Cl)cc1Cl
c = NS(=O)(=O)c1cc(C(=O)N2CCN(S(=O)(=O)c3ccccc3[N+](=O)[O-])CC2)c(Cl)cc1Cl
Task item: Please produce an ascending ranking of these compounds based on Ki. Arrange the labels as the request states and list them.
Reply: c, b, a
